Target: ΔF508-CFTR (Homo sapiens, UniProt P13569, DEL508-508)
Construct: host or cells: CFBE41o-, doxycycline-inducible
Sequence (P13569 with tags, fused parts or gaps DEL508-508): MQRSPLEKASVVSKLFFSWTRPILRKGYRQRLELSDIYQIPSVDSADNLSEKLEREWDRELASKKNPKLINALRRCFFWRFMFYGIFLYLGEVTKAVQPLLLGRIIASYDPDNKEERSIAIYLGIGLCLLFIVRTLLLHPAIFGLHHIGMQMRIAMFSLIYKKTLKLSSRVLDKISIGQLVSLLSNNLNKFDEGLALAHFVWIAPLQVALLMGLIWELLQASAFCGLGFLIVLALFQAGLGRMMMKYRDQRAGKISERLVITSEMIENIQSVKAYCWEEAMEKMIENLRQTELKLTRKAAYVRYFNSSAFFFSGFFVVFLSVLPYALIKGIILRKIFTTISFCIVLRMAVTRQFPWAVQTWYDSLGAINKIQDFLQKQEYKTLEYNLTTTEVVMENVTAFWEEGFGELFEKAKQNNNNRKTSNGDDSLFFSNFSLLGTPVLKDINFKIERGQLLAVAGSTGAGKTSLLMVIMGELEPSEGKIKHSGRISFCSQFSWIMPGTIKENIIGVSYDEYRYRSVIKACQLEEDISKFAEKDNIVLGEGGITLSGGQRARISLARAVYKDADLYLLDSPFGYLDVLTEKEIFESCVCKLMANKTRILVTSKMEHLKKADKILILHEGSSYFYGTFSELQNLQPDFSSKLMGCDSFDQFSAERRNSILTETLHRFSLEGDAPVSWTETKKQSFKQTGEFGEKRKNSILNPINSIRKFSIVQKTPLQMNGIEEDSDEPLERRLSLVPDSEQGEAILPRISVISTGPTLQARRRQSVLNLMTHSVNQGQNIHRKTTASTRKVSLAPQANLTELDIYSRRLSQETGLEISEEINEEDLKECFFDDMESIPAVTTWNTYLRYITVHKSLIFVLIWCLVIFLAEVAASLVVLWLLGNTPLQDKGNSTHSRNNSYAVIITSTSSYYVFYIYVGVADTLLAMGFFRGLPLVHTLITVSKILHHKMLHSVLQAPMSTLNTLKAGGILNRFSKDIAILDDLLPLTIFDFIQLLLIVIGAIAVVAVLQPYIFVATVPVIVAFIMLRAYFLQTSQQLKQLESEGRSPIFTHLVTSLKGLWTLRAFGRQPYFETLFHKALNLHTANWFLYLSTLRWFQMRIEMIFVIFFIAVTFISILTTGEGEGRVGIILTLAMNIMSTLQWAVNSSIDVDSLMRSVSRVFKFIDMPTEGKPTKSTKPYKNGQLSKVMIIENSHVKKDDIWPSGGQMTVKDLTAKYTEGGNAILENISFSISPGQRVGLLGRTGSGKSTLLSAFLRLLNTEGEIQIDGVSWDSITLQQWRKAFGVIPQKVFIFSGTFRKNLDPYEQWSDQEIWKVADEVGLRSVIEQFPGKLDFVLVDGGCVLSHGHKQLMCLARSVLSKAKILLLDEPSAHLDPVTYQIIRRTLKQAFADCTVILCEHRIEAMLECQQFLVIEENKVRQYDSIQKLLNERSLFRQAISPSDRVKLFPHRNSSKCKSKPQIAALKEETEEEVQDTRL
Assay: CFTR cell surface levels using HRP-tagged ΔF508-CFTR expressing CFBE cells, in the presence of a co-corrector
Type: cell-based
Details: HRP-tagged ΔF508-CFTR CFBE cells, in the presence of 3 μM co-corrector
attribute.measured: % Activation (%)
The reply should be a number in %, with the unit left off.

// below: answered molecules
| molecule | attribute.measured | readout.number |
| --- | --- | --- |
| O=C(NS(=O)(=O)N1CCC(N2CCCCC2)CC1)c1cc(N2CCC(N3CCOCC3)CC2)c2c(C3CCC3)nn(-c3ccccc3)c2n1 | % Activation | 385.1 |
| COC1CN(C2CCN(c3cc(C(=O)NS(=O)(=O)N(C)C)nc4c3c(C3CCC3)nn4-c3ccc(F)cc3)CC2)C1 | % Activation | 412.9 |
| CCS(=O)(=O)NC(=O)c1cc(-c2cnc(N(C)C)nc2)c2c(C(C)C)nn(-c3cccc(N4CCOCC4)c3)c2n1 | % Activation | 580.97 |
| CC(C)c1nn(-c2ccc(F)cc2)c2nc(C(=O)NS(C)(=O)=O)cc(OCCCN(C)C)c12 | % Activation | 267.2 |
| CC(C)c1nn(-c2cccc(N(C)C)c2)c2nc(C(=O)NS(C)(=O)=O)cc(N3CCCCC3)c12 | % Activation | 542.17 |

Query :: For the molecule CC(C)c1nn(-c2cccc(N3CCCC3)c2)c2nc(C(=O)NS(C)(=O)=O)cc(-c3ccc(N4CCOCC4)cc3)c12 , what % Activation is on record?
Result :: 649.9

Query :: For the molecule CC(C)N1CCN(C2CCN(c3cc(C(=O)NS(=O)(=O)N4CCC4)nc4c3c(C3CCC3)nn4-c3ccc(F)cc3)CC2)CC1 , what % Activation is on record?
Result :: 532.4

Query :: For the molecule CCS(=O)(=O)NC(=O)c1cc(-c2ccc(N3CCOCC3)nc2)c2c(C)nn(-c3cccc(C(F)(F)F)c3)c2n1 , what % Activation is on record?
Result :: 352.5

Query :: For the molecule CN(C)S(=O)(=O)NC(=O)c1cc(N2CCC(CCN3CCOCC3)CC2)c2c(C3CCC3)nn(C3CCCCC3)c2n1 , what % Activation is on record?
Result :: 462.85

Query :: For the molecule CCS(=O)(=O)NC(=O)c1cc(N2CCCC(OC)C2)c2c(C(C)C)nn(-c3cccc(C)c3)c2n1 (stereo not shown) , what % Activation is on record?
Result :: 342.3

Query :: For the molecule CC(C)c1nn(-c2ccc(F)cc2)c2nc(C(=O)NS(C)(=O)=O)cc(OCC3COCCN3C(C)C)c12 (stereo not shown) , what % Activation is on record?
Result :: 251.5

###

Target: ΔF508-CFTR (Homo sapiens, UniProt P13569, DEL508-508)
Construct: host or cells: CFBE41o-, doxycycline-inducible
Assay: CFTR cell surface levels using HRP-tagged ΔF508-CFTR expressing CFBE cells, in the presence of a co-corrector
Format: cell-based
Settings: HRP-tagged ΔF508-CFTR CFBE cells, in the presence of 3 μM co-corrector; read-out: EC50
attribute.measured: pEC50
pEC50 (log units): -log10 of the concentration in mol/L.

// below: answered compounds
| compound | readout.number |
| --- | --- |
| CCS(=O)(=O)NC(=O)c1cc(-c2cnc(N(C)C)nc2)c2c(C(C)C)nn(-c3cccc(N4CCOCC4)c3)c2n1 [Compound 30] | 6.67 |
| O=C(NS(=O)(=O)NC1CCOCC1)c1cc(N2CCC(N3CCOCC3)CC2)c2c(C3CCC3)nn(-c3ccc(F)cc3)c2n1 [Compound 578] | 6.97 |
| COCC1CCN(c2cc(C(=O)NS(=O)(=O)CCN3CCOCC3)nc3c2c(C2CCC2)nn3-c2ccccc2)CC1 [Compound 267] | 7.24 |

Query :: Form entry - test system: ΔF508-CFTR (Homo sapiens, UniProt P13569, DEL508-508); read-out: pEC50; compound: CC(C)c1nn(-c2cccc(N(C)C)c2)c2nc(C(=O)NS(C)(=O)=O)cc(-c3ccc(N4CCOCC4)nc3)c12 [Compound 53]
Result :: 6.19

Query :: Form entry - test system: ΔF508-CFTR (Homo sapiens, UniProt P13569, DEL508-508); read-out: pEC50; compound: CC(C)Oc1nn(C2CCCCC2)c2nc(C(=O)NS(=O)(=O)N(C)C)cc(-c3ccc(N4CCN(C5CC5)CC4)cc3)c12 [Compound 559]
Result :: 6.81

###

Each entry below carries its reported EC50.
Target: ΔF508-CFTR (Homo sapiens, UniProt P13569, DEL508-508)
Construct: host or cells: CFBE41o-, doxycycline-inducible
Experiment: CFTR cell surface levels using HRP-tagged ΔF508-CFTR expressing CFBE cells, intrinsic corrector capacity
Type: cell-based
Conditions: HRP-tagged ΔF508-CFTR expressing CFBE41o- cells; compound alone (intrinsic corrector capacity); 20 hours at 33° C.; read-out: EC50

// below: answered compounds
| compound | EC50 |
| --- | --- |
| Cc1nn(-c2ccccc2)c2nc(C(=O)NS(=O)(=O)c3ccccc3)cc(-c3ccc(N4CCOCC4)cc3)c12 [Compound 2] | 1870 nM |
| CN(C)S(=O)(=O)NC(=O)c1cc(-c2ccc(CN3CCOCC3)cc2)c2c(OC3CCC3)nn(C3CCCCC3)c2n1 [Compound 481] | 278 nM |
| CS(=O)(=O)NC(=O)c1cc(N2CCC(O)(CC#N)CC2)c2c(C3CCC3)nn(-c3ccccc3)c2n1 [Compound 326] | 2380 nM |

Query :: For the compound COCC1CCN(c2cc(C(=O)NS(=O)(=O)N3CCC(F)CC3)nc3c2c(C2CCC2)nn3-c2ccccc2)CC1 [Compound 399] , what EC50 is on record?
Result :: 72.1 nM

Query :: For the compound CS(=O)(=O)NC(=O)c1cc(C2CCC(N3CCOCC3)CC2)c2c(C3CCC3)nn(-c3ccccc3)c2n1 (stereo not drawn) [Compound 648] , what EC50 is on record?
Result :: 316 nM

Query :: For the compound O=C(NS(=O)(=O)C1CCOC1)c1cc(N2CCC(CN3CCOCC3)CC2)c2c(C3CCC3)nn(-c3ccc(F)cc3)c2n1 (stereo not drawn) [Compound 495] , what EC50 is on record?
Result :: 217 nM

Query :: For the compound CC(C)c1nn(-c2cccc(N3CCCC3)c2)c2nc(C(=O)NS(C)(=O)=O)cc(-c3ccc(N(C)C4CCOCC4)cc3)c12 [Compound 110] , what EC50 is on record?
Result :: 358 nM

Query :: For the compound CC(C)c1nn(-c2ccc(F)cc2F)c2nc(C(=O)NS(C)(=O)=O)cc(-c3cnc(N4CCC(C#N)CC4)nc3)c12 [Compound 139] , what EC50 is on record?
Result :: 806 nM

Query :: For the compound CC(C)c1nn(-c2cccc(N(C)C)c2)c2nc(C(=O)NS(C)(=O)=O)cc(-c3ccc(N4CCC(C#N)CC4)nc3)c12 [Compound 83] , what EC50 is on record?
Result :: 547 nM

Query :: For the compound C[C@H](C1CCN(c2cc(C(=O)NS(=O)(=O)N(C)C)nc3c2c(C2CCC2)nn3-c2ccc(F)cc2)CC1)N1CCOCC1 (single isomer, unassigned) [Compound 479] , what EC50 is on record?
Result :: 197 nM

###

Each entry below carries its reported % Activation.
Target: ΔF508-CFTR (Homo sapiens, UniProt P13569, DEL508-508)
Construct: host or cells: CFBE41o-, doxycycline-inducible
Experiment: CFTR cell surface levels using HRP-tagged ΔF508-CFTR expressing CFBE cells, in the presence of a co-corrector
Format: cell-based
Details: HRP-tagged ΔF508-CFTR CFBE cells, in the presence of 3 μM co-corrector
The reply should be a number in %, with the unit left off.

| molecule | readout.number |
| --- | --- |
| CCS(=O)(=O)NC(=O)c1cc(-c2ccc(N3CCOCC3)cc2)c2c(C)nn(-c3cccc(OC)c3)c2n1 [Compound 73] | 423.35 |
| COC1CCN(C2CCN(c3cc(C(=O)NS(=O)(=O)N(C)C)nc4c3c(C3CCC3)nn4-c3ccc(F)cc3)CC2)C1 (stereo not shown) [Compound 524] | 398.75 |
| CC(C)Oc1nn(C2CCCCC2)c2nc(C(=O)NS(C)(=O)=O)cc(-c3ccc(CN4CCOCC4)cc3)c12 [Compound 404] | 370 |

Query :: Form entry - test system: ΔF508-CFTR (Homo sapiens, UniProt P13569, DEL508-508); read-out: % Activation; molecule: CC(C)c1nn(-c2cccc(N(C)C)c2)c2nc(C(=O)NS(C)(=O)=O)cc(-c3ccc(N4CCOCC4)nc3)c12 [Compound 53]
Result :: 572.78
